Data origin: patent US5441941A

CC50 overview
test system: KM12; assay: NCI in vitro screen, SRB percent growth, Colon Cancer; conditions: read-out: LC-50; PG=-50
value-type: CC50

structure-smiles	value-type	observed-measurement
Cc1ccc2[nH]c3c(C)c4c(c(C)c3c2c1)CN(C)C=C4	CC50	11 µM
COc1ccc2[nH]c3c(C)c4c(c(C)c3c2c1)CN(C)C=C4	CC50	10.6 µM

* * *

test system: SF-539; test: NCI in vitro screen, SRB percent growth, CNS Cancer; conditions: read-out: LC-50; PG=-50

compound	relation-qualifier	CC50 [µM]
COc1ccc2[nH]c3c(C)c4c(c(C)c3c2c1)CN(C)C=C4 [Formula VII]	>	100
Cc1ccc2[nH]c3c(C)c4c(c(C)c3c2c1)CN(C)C=C4 [Formula XI]	=	7.56
